- Subject Of Test: T1, PUF4 RNA-binding domain (Saccharomyces cerevisiae, UniProt P25339 537-888)
- T1 sequence: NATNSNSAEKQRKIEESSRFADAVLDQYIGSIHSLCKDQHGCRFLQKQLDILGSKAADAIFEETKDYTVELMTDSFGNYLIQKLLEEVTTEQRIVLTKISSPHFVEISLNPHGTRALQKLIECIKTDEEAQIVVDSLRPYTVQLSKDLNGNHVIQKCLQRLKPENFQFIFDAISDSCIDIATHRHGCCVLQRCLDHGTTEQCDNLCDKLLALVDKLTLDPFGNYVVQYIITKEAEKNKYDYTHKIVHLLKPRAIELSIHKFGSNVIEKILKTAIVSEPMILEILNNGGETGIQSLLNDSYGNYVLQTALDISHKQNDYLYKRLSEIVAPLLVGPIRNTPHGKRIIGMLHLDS
- Assay Notes: Mg; RNA-MaP; 20 mM Na-HEPES pH 7.4, 30 mM KOAc, 0.75 mM MgCl2, 0.1% Tween-20, 5% glycerol, 0.1 mg/mL BSA, 2 mM DTT; 25 C; 0.0125-409.6 nM protein
- Details: tags: N-His6-TEV cleaved; C-SNAP kept, Cy3B-labelled; label: tethered on chip by stalled RNA polymerase
Here the recorded pKd is given for each entry.
Quick note: pKd means taking -log10 of the concentration in moles per liter.

{"columns": ["Binder", "Numeric Value"],
 "data": [
  ["UCUCUUUUUCCGUAUAUUAUCUCUU (ssRNA) [Ie_S1_P4E.1_K4.1_C4.1_H4.1_[+1TTCC]_A4.1_F4.1_T4.1]", 7.44]
]}

Then this binder:
Prompt: Fill in: pKd of Ib_S2_P5E.1_K5.1_C5.1_H5.1_A5.1_[T5C]_F5.1_[T9C]_T5.1 (ssRNA) RNA: UUUGAUUAAUAUGAUAUCGUUCUUUCUUGUACUAUCAUUCUUUCUCGAUAUCAUAUUAAUCUUU is ___
Completion: 7.77
